# Tested on: ATP;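 note: ATP exposure 15 min at 22 °C before imaging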
# experimentSummary: switch fluorescence ratio, 500 uM ATP over buffer (Cy3 cluster intensity, sum of 5 cycles each) (fold (ratio)); higher = stronger signal-on switching upon ATP binding; sequences stand for … in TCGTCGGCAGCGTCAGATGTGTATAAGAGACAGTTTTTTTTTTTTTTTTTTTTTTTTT…TC
# testConditions: aptamer strand: ATP DNA aptamer (quencher-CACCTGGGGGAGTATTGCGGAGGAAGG + anchor), 100 nM annealed; ATP concentration: 500 uM
readout: switch fluorescence ratio
Enter the number alone.

# switch fluorescence ratio lookup, item TTTTGGACAT
0.993

Next: AGTAAGGTTA
1

Now the same for TTTAGTTTGC
0.992

Also check TGATTGTTTG
1.01

Item: GCAAAAGGGC
1.02

Could you do the same for TGTGAGAGGT , please?
0.995

What do you have for TGGGATATTC ?
0.999

Try the sequence CGATCCGGCG
1.08

Try this sequence next: AAATCAAACG
1.05

Please answer likewise for CGTGATCCCC
1.17

Next sequence: GGAATTGGCG
1.03

Please answer likewise for AGGGGTGAAA
0.987

Input TATAATACAA
1.02

And then GGGAGTTTTG , what is it?
1

Can you handle CTTTTTAACA next?
0.974

Next entry: GTTGGTGTAT
0.991

Same again, this time with CAGCTGGATG
0.993

Try this sequence too: ATTTGTGTAC
1.05

Query GCTTTAACAC next
1.03

Same for ATTGCTGGGG
1.01

For TTTTTGGAGA then?
0.994

Now consider AAGCATAGGT and answer again.
0.995

Also, AGCTTGATGT please.
1.02

Next up: TGGGATTAGT
0.987

Consider next the sequence CGGTTTATGC in the same way.
1.09

Please give the result for AAAGTTAGTT too.
1.03

Also TTGGGGGTGA , if possible.
1

Same question for GATTCACGTT please.
1.05

And TACAGTCAAC ?
1.06

Next sequence up: CATTTTTTTT
0.995

* * *

# Tested on: ATP;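 note: ATP exposure 15 min at 22 °C before imaging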
# experimentSummary: switch fluorescence ratio, 500 uM ATP over buffer (Cy3 cluster intensity, sum of 5 cycles each) (fold (ratio)); higher = stronger signal-on switching upon ATP binding; sequences stand for … in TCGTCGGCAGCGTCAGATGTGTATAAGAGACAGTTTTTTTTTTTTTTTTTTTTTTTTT…TC
# testConditions: aptamer strand: ATP DNA aptamer (quencher-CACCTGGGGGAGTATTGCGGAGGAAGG + anchor), 100 nM annealed; ATP concentration: 500 uM
Record met whenever switch fluorescence ratio is at 1 or higher; record not met when lower.

// inclusive: switch fluorescence ratio at least 1? input: TCTGCTTTTG
met

Query AGTGGAAGGG next
not met

And then CGAAATCCTT , what is it?
met

What about GGGGTAATAT ?
met

Now the sequence TGGTTGTGCG
met

* * *

# Tested on: ATP;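 note: ATP exposure 15 min at 22 °C before imaging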
# experimentSummary: switch fluorescence ratio, 500 uM ATP over buffer (Cy3 cluster intensity, sum of 5 cycles each) (fold (ratio)); higher = stronger signal-on switching upon ATP binding; sequences stand for … in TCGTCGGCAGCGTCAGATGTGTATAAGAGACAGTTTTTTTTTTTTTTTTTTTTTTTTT…TC
# testConditions: aptamer strand: ATP DNA aptamer (quencher-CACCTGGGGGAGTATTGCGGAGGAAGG + anchor), 100 nM annealed; ATP concentration: 500 uM
readout: switch fluorescence ratio
Reply with the value as a number alone.

Hello, I am looking for reported switch fluorescence ratio with ATP for TTATTAGCTT . Could you help?
0.992

What about TGAAATGATG ?
0.998

Param item: TTCCGTTTTA
1.15

Same question, GGGCAAAATC this time
1.04

Follow-up entry: TACTGTTATG
1.1

Then this sequence: ATGTTTATCT
0.979

Then what about the sequence GGTTGAGGGC ?
1

Cool, now GACTGTCGGC
1.02

Same lookup for AGGTGGAAGG , please.
0.984
